Ref: paper doi:10.1101/2025.02.11.637513v1

- experimental_system: human caspase-1 (Homo sapiens)
- Sequence (P29466 120-297 limits assumed): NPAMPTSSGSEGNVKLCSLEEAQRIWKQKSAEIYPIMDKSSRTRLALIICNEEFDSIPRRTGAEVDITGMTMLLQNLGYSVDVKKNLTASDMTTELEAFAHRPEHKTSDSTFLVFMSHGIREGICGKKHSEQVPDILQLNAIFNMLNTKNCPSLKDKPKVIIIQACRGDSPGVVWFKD
- Sequence (P29466 317-404 limits assumed): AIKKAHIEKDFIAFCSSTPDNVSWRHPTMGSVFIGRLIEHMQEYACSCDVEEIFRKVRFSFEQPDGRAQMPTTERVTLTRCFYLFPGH
- assay_overview: tetrapeptide-ACC substrate cleavage kinetics
- Format: biochemical
- condition_summary: Ac-P4-P3-P2-Asp-ACC substrate, 0.05-500 μM, 2-15 nM enzyme, 37°C, triplicate

[
  {
    "substance": "Val-Gly-His-Asp",
    "kcat/KM caspase-1": "2 000 M^-1s^-1"
  },
  {
    "substance": "Phe-Glu-Ala-Asp",
    "kcat/KM caspase-1": "57 100 M^-1s^-1"
  },
  {
    "substance": "Ile-Glu-Thr-Asp",
    "kcat/KM caspase-1": "1 430 M^-1s^-1"
  },
  {
    "substance": "Trp-Gln-Val-Asp",
    "kcat/KM caspase-1": "124 800 M^-1s^-1"
  },
  {
    "substance": "Tyr-Lys-Met-Asp",
    "kcat/KM caspase-1": "9 700 M^-1s^-1"
  },
  {
    "substance": "Trp-Gln-Pro-Asp",
    "kcat/KM caspase-1": "124 300 M^-1s^-1"
  },
  {
    "substance": "Tyr-Val-His-Asp",
    "kcat/KM caspase-1": "140 500 M^-1s^-1"
  },
  {
    "substance": "Tyr-Lys-Ala-Asp",
    "kcat/KM caspase-1": "10 800 M^-1s^-1"
  },
  {
    "substance": "Leu-Glu-Ser-Asp",
    "kcat/KM caspase-1": "20 000 M^-1s^-1"
  },
  {
    "substance": "Phe-Leu-Thr-Asp",
    "kcat/KM caspase-1": "50 000 M^-1s^-1"
  },
  {
    "substance": "Pro-Met-His-Asp",
    "kcat/KM caspase-1": "13 200 M^-1s^-1"
  },
  {
    "substance": "Thr-Trp-His-Asp",
    "kcat/KM caspase-1": "4 500 M^-1s^-1"
  },
  {
    "substance": "Leu-Glu-His-Asp",
    "kcat/KM caspase-1": "97 500 M^-1s^-1"
  },
  {
    "substance": "Tyr-Thr-Ile-Asp",
    "kcat/KM caspase-1": "48 100 M^-1s^-1"
  },
  {
    "substance": "Val-Asp-His-Asp",
    "kcat/KM caspase-1": "6 950 M^-1s^-1"
  },
  {
    "substance": "Pro-Tyr-His-Asp",
    "kcat/KM caspase-1": "10 900 M^-1s^-1"
  }
]

* * *

# kcat/KM caspase-4 annotations
- experimental_system: human caspase-4 (Homo sapiens)
- Sequence (P49662 81-270 limits assumed): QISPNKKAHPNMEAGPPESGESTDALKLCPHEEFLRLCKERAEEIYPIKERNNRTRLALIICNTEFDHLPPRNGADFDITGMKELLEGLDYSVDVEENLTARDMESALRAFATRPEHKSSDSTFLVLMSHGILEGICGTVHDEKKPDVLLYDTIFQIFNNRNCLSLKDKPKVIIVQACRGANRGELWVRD
- Sequence (P49662 290-377 limits assumed): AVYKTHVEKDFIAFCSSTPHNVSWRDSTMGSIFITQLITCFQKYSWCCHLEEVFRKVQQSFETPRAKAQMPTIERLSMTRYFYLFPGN
- assay_overview: tetrapeptide-ACC substrate cleavage kinetics
- Assay type: biochemical
- condition_summary: Ac-P4-P3-P2-Asp-ACC substrate, 0.05-500 μM, 35-200 nM enzyme, 37°C, triplicate

[
  {
    "substance": "Tyr-Val-His-Asp",
    "kcat/KM caspase-4": "2 920 M^-1s^-1"
  },
  {
    "substance": "Trp-Gln-Val-Asp",
    "kcat/KM caspase-4": "4 300 M^-1s^-1"
  },
  {
    "substance": "Leu-Glu-His-Asp",
    "kcat/KM caspase-4": "8 950 M^-1s^-1"
  },
  {
    "substance": "Tyr-Lys-Ala-Asp",
    "kcat/KM caspase-4": "140 M⁻¹ s⁻¹"
  },
  {
    "substance": "Val-Trp-His-Asp",
    "kcat/KM caspase-4": "1 010 M^-1s^-1"
  },
  {
    "substance": "Trp-Lys-Gln-Asp",
    "kcat/KM caspase-4": "320 M⁻¹ s⁻¹"
  },
  {
    "substance": "Trp-Gln-Pro-Asp",
    "kcat/KM caspase-4": "3 470 M^-1s^-1"
  },
  {
    "substance": "Tyr-Glu-Lys-Asp",
    "kcat/KM caspase-4": "750 M⁻¹ s⁻¹"
  }
]

* * *

- experimental_system: human caspase-7 (Homo sapiens)
- Sequence (P55210 24-198 limits assumed): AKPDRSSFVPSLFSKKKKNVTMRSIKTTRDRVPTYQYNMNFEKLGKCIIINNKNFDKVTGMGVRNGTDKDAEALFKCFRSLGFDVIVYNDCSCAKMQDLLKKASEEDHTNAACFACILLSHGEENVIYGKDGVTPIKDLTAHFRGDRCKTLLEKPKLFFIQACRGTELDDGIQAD
- Sequence (P55210 207-303 limits assumed): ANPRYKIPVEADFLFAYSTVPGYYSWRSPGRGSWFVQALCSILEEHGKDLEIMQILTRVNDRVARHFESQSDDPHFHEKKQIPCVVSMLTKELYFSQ
- assay_overview: tetrapeptide-ACC substrate cleavage kinetics
- Assay type: biochemical
- condition_summary: Ac-P4-P3-P2-Asp-ACC substrate, 0.05-500 μM, 40-400 nM enzyme, 37°C, triplicate
parameter: kcat/KM caspase-7 (M⁻¹ s⁻¹)

[
  {
    "substance": "Tyr-Val-His-Asp",
    "parameter": "kcat/KM caspase-7",
    "units_of_measure": "M⁻¹ s⁻¹",
    "relation_qualifier": "=",
    "measured_result": 150
  },
  {
    "substance": "Trp-Glu-His-Asp",
    "parameter": "kcat/KM caspase-7",
    "units_of_measure": "M⁻¹ s⁻¹",
    "relation_qualifier": "=",
    "measured_result": 410
  },
  {
    "substance": "Leu-Glu-Ser-Asp",
    "parameter": "kcat/KM caspase-7",
    "units_of_measure": "M⁻¹ s⁻¹",
    "relation_qualifier": "=",
    "measured_result": 20
  },
  {
    "substance": "Val-Asp-His-Asp",
    "parameter": "kcat/KM caspase-7",
    "units_of_measure": "M⁻¹ s⁻¹",
    "relation_qualifier": "=",
    "measured_result": 910
  },
  {
    "substance": "Phe-Leu-Thr-Asp",
    "parameter": "kcat/KM caspase-7",
    "units_of_measure": "M⁻¹ s⁻¹",
    "relation_qualifier": "=",
    "measured_result": 450
  },
  {
    "substance": "Pro-Tyr-His-Asp",
    "parameter": "kcat/KM caspase-7",
    "units_of_measure": "M⁻¹ s⁻¹",
    "relation_qualifier": "=",
    "measured_result": 90
  },
  {
    "substance": "Val-Trp-His-Asp",
    "parameter": "kcat/KM caspase-7",
    "units_of_measure": "M⁻¹ s⁻¹",
    "relation_qualifier": "=",
    "measured_result": 210
  },
  {
    "substance": "Tyr-Lys-Ala-Asp",
    "parameter": "kcat/KM caspase-7",
    "units_of_measure": "M⁻¹ s⁻¹",
    "relation_qualifier": "<",
    "measured_result": 10
  },
  {
    "substance": "Trp-Gln-Val-Asp",
    "parameter": "kcat/KM caspase-7",
    "units_of_measure": "M⁻¹ s⁻¹",
    "relation_qualifier": "=",
    "measured_result": 100
  },
  {
    "substance": "Phe-Glu-Ala-Asp",
    "parameter": "kcat/KM caspase-7",
    "units_of_measure": "M⁻¹ s⁻¹",
    "relation_qualifier": "=",
    "measured_result": 180
  },
  {
    "substance": "Pro-Met-His-Asp",
    "parameter": "kcat/KM caspase-7",
    "units_of_measure": "M⁻¹ s⁻¹",
    "relation_qualifier": "=",
    "measured_result": 100
  },
  {
    "substance": "Tyr-Glu-Lys-Asp",
    "parameter": "kcat/KM caspase-7",
    "units_of_measure": "M⁻¹ s⁻¹",
    "relation_qualifier": "=",
    "measured_result": 80
  },
  {
    "substance": "Tyr-Gln-Pro-Asp",
    "parameter": "kcat/KM caspase-7",
    "units_of_measure": "M⁻¹ s⁻¹",
    "relation_qualifier": "=",
    "measured_result": 300
  },
  {
    "substance": "Tyr-Lys-Met-Asp",
    "parameter": "kcat/KM caspase-7",
    "units_of_measure": "M⁻¹ s⁻¹",
    "relation_qualifier": "=",
    "measured_result": 10
  },
  {
    "substance": "Trp-Lys-Gln-Asp",
    "parameter": "kcat/KM caspase-7",
    "units_of_measure": "M⁻¹ s⁻¹",
    "relation_qualifier": "<",
    "measured_result": 10
  },
  {
    "substance": "Trp-Gln-Pro-Asp",
    "parameter": "kcat/KM caspase-7",
    "units_of_measure": "M⁻¹ s⁻¹",
    "relation_qualifier": "=",
    "measured_result": 70
  }
]
